assay: photoluminescence quantum yield (fraction); solvent given as SMILES; settings: in CC(C)=O
Reported photoluminescence quantum yield values are given for each entry in this list.
parameterMeasured: photoluminescence quantum yield

>>> endpointvalue("COc1cc2c(cc1-c1ccccc1)Cc1c3c(c4c(c1-2)-c1cc(OC)c(-c2ccccc2)cc1C4)C(=O)N(CCC(C)C)C3=O")
0.38
>>> endpointvalue("COc1ccc(N(c2ccc(OC)cc2)c2cc3ccc4cc(B(c5c(C)cc(C)cc5C)c5c(C)cc(C)cc5C)cc5ccc(c2)c3c45)cc1")
0.21
>>> endpointvalue("Nc1ccc2c(c1)C(=O)NC2=O")
0.68
>>> endpointvalue("O=Cc1cc(O)ccc1O")
0.01
>>> endpointvalue("COC(=O)C(Cc1ccc2oc(-c3ccc(-n4c5ccccc5c5ccccc54)cc3)nc2c1)NC(=O)OC(C)(C)C (stereo unspecified)")
0.44
>>> endpointvalue("COc1ccc(OC)c(C=O)c1")
0.01

----------
test: photoluminescence quantum yield (fraction); solvent given as SMILES; details: in CCO
parameterMeasured: photoluminescence quantum yield

>>> endpointvalue("COC(=O)c1cc(=O)n(C)c2cc(-c3cc4c5c(c3)CCCN5CCC4)sc12")
0.09
>>> endpointvalue("CC(C)(C)OC(=O)NC(Cc1ccccc1)C(=O)OCc1ccc2c3cccc4cccc(c5cccc1c52)c43 (centres undefined)")
0.86
>>> endpointvalue("COc1ccc(-n2nc(C(=O)N3CCCC3)c(N3CCCC3)n2)cc1")
0.9
>>> endpointvalue("CCOC(=O)CSc1nc(-c2ccccc2)c(C)c(C#N)c1C#N")
0.037
>>> endpointvalue("COc1ccc(C#Cc2nc3ccccc3nc2-c2cn(C)c3ccccc23)cc1")
0.01
>>> endpointvalue("Oc1ccc(-c2cccs2)cc1-c1nc2ccccc2s1")
0.0473
>>> endpointvalue("CC[N+]1=C(/C=C/c2c(C)nn3c(-c4ccc(OC)cc4)ccnc23)C(C)(C)c2ccccc21")
0.37
>>> endpointvalue("COc1ccc([C@@H]2C[C@](O)(c3ccccn3)C[C@](O)(c3ccccn3)[C@H]2C(=O)c2ccc(N(c3ccccc3)c3ccccc3)cc2)cc1")
0.01
>>> endpointvalue("COC(=O)CCC(NC(=O)CCNc1cccc2ccccc12)C(=O)OC (centres undefined)")
0.57
>>> endpointvalue("COc1ccc(-c2csc(/C(C#N)=N\\Nc3ccc(C#N)cc3)n2)cc1")
0.002
>>> endpointvalue("CCN(CC)c1ccc(C=Cc2nc3nc4ccccc4nc3s2)cc1")
0.36
>>> endpointvalue("CCCCN1C(=O)C(=C/C=C/C=C/C=C2N(CCCC)c3ccccc3N2CCCC)C(=O)N(CCCC)C1=S")
0.074
>>> endpointvalue("N#CC(C#N)=Cc1ccc(-c2ccc(O)c(-c3nc4ccccc4s3)c2)o1")
0.0357
>>> endpointvalue("N#Cc1cccc(N)c1")
0.19
>>> endpointvalue("CN(C)/C=N\\c1ccc2c3c(cccc13)C(=O)c1ccccc1-2")
0.26
>>> endpointvalue("COC(=O)C(Cc1ccc2oc(-c3ccc(-n4c5ccccc5c5ccccc54)cc3)nc2c1)NC(=O)OC(C)(C)C (centres undefined)")
0.63
>>> endpointvalue("CCOC(=O)c1cc(C(=O)OCC)c2ccccc2n1")
0.006
>>> endpointvalue("Cc1ccc(C2=C3C=C(I)C=[N+]3[B-](F)(F)n3c2cc(I)c3I)cc1")
0.026
>>> endpointvalue("CC/[NH+]=c1\\cc2oc3cc(NCCN)c4ccccc4c3nc-2cc1C")
0.27
>>> endpointvalue("O=C1c2cccc3cc4ccccc4c(c23)C(=O)N1Cc1ccccn1")
0.91
>>> endpointvalue("CN(C)CCN(Cc1c2ccccc2c(CN(CCN(C)C)c2ccc([N+](=O)[O-])cc2[N+](=O)[O-])c2ccccc12)c1ccc([N+](=O)[O-])cc1[N+](=O)[O-]")
0.0136
>>> endpointvalue("COc1cc(OC)c2c(c1)C(=O)c1ccc(OC)cc1-2")
0
>>> endpointvalue("COc1ccc(-c2csc(/C(C#N)=C/c3ccncc3)n2)cc1")
0.002
>>> endpointvalue("COc1ccc(OC)c(C=O)c1")
0.26
>>> endpointvalue("CC/[NH+]=c1\\cc2oc3cc(NCCO)c4ccccc4c3nc-2cc1C")
0.49
>>> endpointvalue("COCCOc1ccc(OCCOC)c(C=O)c1")
0.2
>>> endpointvalue("NS(=O)(=O)c1ccc(N2N=C(c3ccc(O)cc3)CC2c2ccc(Cl)cc2)cc1 (centres undefined)")
0.44
>>> endpointvalue("CCCCCCCCC1(CCCCCCCC)c2cc(-c3ccc([N+](=O)[O-])cc3)ccc2-c2ccc(-c3ccc([N+](=O)[O-])cc3)cc21")
0
>>> endpointvalue("N#CC1=C(c2ccc(-c3cccs3)s2)CC1")
0.18
>>> endpointvalue("COc1ccc(/C=C2\\OC(=O)c3cc(N)ccc32)cc1")
0.34
>>> endpointvalue("Oc1c(-c2ccco2)cccc1-c1nc2ccccc2s1")
0.0057
>>> endpointvalue("c1cc2ccc3ccc(-n4c5ccccc5c5ccccc54)c4ccc(c1)c2c34")
0.38
>>> endpointvalue("Cc1cc(=O)oc2ccc3ccc(-c4cn(Cc5ccccc5)nn4)cc3c12")
0.35
>>> endpointvalue("Cc1c(OCC(=O)O)cc2c3c([nH]c2c1C)C(=O)CCC3")
0.019

----------
assay: photoluminescence quantum yield (fraction); solvent given as SMILES; conditions: in O
Entries are grouped by photoluminescence quantum yield into these classes: bucket 1 = under 0.1, bucket 2 = from 0.1 up to 0.3, bucket 3 = 0.3 and over

>>> discretelabel("Cc1oc(-c2ccccc2)nc1C(=O)O")
"bucket 3"
>>> discretelabel("CCOC(=O)c1ccccc1-c1c2ccc(=[N+](CC)CC)cc-2oc2c1oc1cc(N)ccc12")
"bucket 1"
>>> discretelabel("CC[N+]1=C(/C=C/C=C/C=C/C=C2/N(CCCCCC(=O)O)c3ccc(S(=O)(=O)[O-])cc3C2(C)C)C(C)(C)c2cc(S(=O)(=O)[O-])ccc21")
"bucket 2"
>>> discretelabel("CN(C)c1cc(C#N)c(N(C)C)c(C#N)c1")
"bucket 3"
>>> discretelabel("COc1ccc2c(c1)[n+]([O-])nc(N)[n+]2[O-]")
"bucket 1"
>>> discretelabel("CC1(C)C(=O)C=Cc2ccc(N)cc21")
"bucket 2"
>>> discretelabel("CC/[NH+]=c1\\cc2oc3cc(NCCN)c4ccccc4c3nc-2cc1C")
"bucket 2"
>>> discretelabel("COC(=O)c1nc(-c2ccccc2)oc1C")
"bucket 3"
>>> discretelabel("COCCOc1ccc(OCCOC)c(C=O)c1")
"bucket 2"
>>> discretelabel("CC1(C)C(/C=C/C=C/C=C/C=C2/N(c3ccc(S(=O)(=O)[O-])cc3)c3ccc(S(=O)(=O)[O-])cc3C2(C)C)=[N+](c2ccc(S(=O)(=O)[O-])cc2)c2ccc(S(=O)(=O)[O-])cc21")
"bucket 2"

----------
Documented photoluminescence quantum yield across a set of compounds
experiment: photoluminescence quantum yield (fraction); solvent given as SMILES; conditions: in ClCCl
parameterMeasured: photoluminescence quantum yield

>>> endpointvalue("COC(=O)c1cc(=O)n(C)c2cc(-c3ccccc3OC)sc12")
0.51
>>> endpointvalue("Cc1ccc(-n2c(-c3ccc(N(c4ccc(-c5ccc(N(c6ccc(-c7nc8c9ccccc9c9ccccc9c8n7-c7ccc(C)cc7)cc6)c6ccc(-c7nc8c9ccccc9c9ccccc9c8n7-c7ccc(C)cc7)cc6)cc5)cc4)c4ccc(-c5nc6c7ccccc7c7ccccc7c6n5-c5ccc(C)cc5)cc4)cc3)nc3c4ccccc4c4ccccc4c32)cc1")
0.282
>>> endpointvalue("Cc1c(C(=O)c2ccc3c4cccc5cccc(c6cccc2c63)c54)c2ccc3cccc4c5cccc6ccc1c(c65)c2c34")
0.069
>>> endpointvalue("COc1cc(N(c2ccc(C=C(C#N)C#N)c(OC)c2)c2ccc(C=C(C#N)C#N)c(OC)c2)ccc1C=C(C#N)C#N")
0.028
>>> endpointvalue("Clc1ccc(C2=C(c3ccc(Cl)cc3)c3cccc4c3c(cc3nc5ccccc5nc34)O2)cc1")
0.37
>>> endpointvalue("C(=C\\c1ncc(-c2ccc(OCc3ccccc3)c(OCc3ccccc3)c2)o1)/c1cccc(N2CCCC2)c1")
0.35
>>> endpointvalue("COC(=O)c1[nH]c(-c2ccc(OC)cc2)c2nnc3ccc(OC)cc3c12")
0.282

----------
assay: photoluminescence quantum yield (fraction); solvent given as SMILES; conditions: in Cc1ccccc1
Using photoluminescence quantum yield as the sorting value, the categories are low: < 0.2; mid: ≥ 0.2 and < 0.7; high: ≥ 0.7

>>> discretelabel("CN(C)c1ccc(C2=Nc3sc4cc(F)ccc4[n+]3[B-](F)(F)O2)cc1")
"high"
>>> discretelabel("CC1(C)c2ccccc2N(c2ccc(-c3cccc(C#N)c3)cc2)c2ccccc21")
"low"
>>> discretelabel("c1ccc(-c2nc3ccccc3nc2-c2cc(-n3c4ccccc4c4ccccc43)cc(-n3c4ccccc4c4ccccc43)c2)cc1")
"low"
>>> discretelabel("Cc1cc(-c2ccc(-c3ccccc3)cc2)nc(-c2ccc(-n3c4ccccc4c4ccccc43)cc2)n1")
"mid"
>>> discretelabel("CN(C)c1ccc(/C=C/c2cc(/C=C/c3ccc(N(C)C)cc3)nc(N)n2)cc1")
"mid"
>>> discretelabel("CC1(C)c2ccccc2N(c2ccc3c(ccc4nc5ccc6cc(N7c8ccccc8C(C)(C)c8ccccc87)ccc6c5nc43)c2)c2ccccc21")
"low"
>>> discretelabel("CCCCCCCCOc1ccc2c3cccc4c(OCCCCCCCC)ccc(c5cccc1c52)c43")
"high"
>>> discretelabel("CC(C)(C)c1cc(C(C)(C)C)c(-c2nnc(-c3ccc(-n4c5ccccc5c5ccccc54)cc3)o2)c(C(C)(C)C)c1")
"mid"
>>> discretelabel("CCN(CC)c1ccc2cc(/C(Cl)=C/C=C/C(=C(C#N)C#N)c3ccc(N(c4ccccc4)c4ccccc4)cc3)c(=O)oc2c1")
"low"
>>> discretelabel("CCCCCCN(CCCCCC)c1ccc(C#Cc2ccc(-c3ccc(C#Cc4ccc(N(CCCCCC)CCCCCC)cc4)cc3)cc2)cc1")
"high"
>>> discretelabel("CCCCN1C(=O)c2cc(Oc3ccc(C(C)(C)C)cc3)c3c4c(Oc5ccc(C(C)(C)C)cc5)cc5c(=O)[nH]/c(=C\\c6ccc7ccccc7n6)c6cc(Oc7ccc(C(C)(C)C)cc7)c(c7c(Oc8ccc(C(C)(C)C)cc8)cc(c2c37)C1=O)c4c56")
"mid"
>>> discretelabel("Cc1ccc(N(c2ccc(C)cc2)c2c3ccccc3c(N(c3ccc(C)cc3)c3ccc(C)cc3)c3ccccc23)cc1")
"high"
>>> discretelabel("CCCCCCc1ccc2c3c(ccc2c1)O[B-](c1ccccc1)(c1ccccc1)[N+](c1ccc([N+]2=Cc4c(ccc5cc(CCCCCC)ccc45)O[B-]2(c2ccccc2)c2ccccc2)cc1)=C3")
"mid"
>>> discretelabel("CCCCCCCCN1c2ccc(C#Cc3ccc(F)cc3)cc2Sc2cc(C=O)ccc21")
"mid"
